assayed.target: […]F508-CFTR (Homo sapiens, UniProt P13569, DEL508-508)
Sequence (P13569 with tags, fused parts or gaps DEL508-508): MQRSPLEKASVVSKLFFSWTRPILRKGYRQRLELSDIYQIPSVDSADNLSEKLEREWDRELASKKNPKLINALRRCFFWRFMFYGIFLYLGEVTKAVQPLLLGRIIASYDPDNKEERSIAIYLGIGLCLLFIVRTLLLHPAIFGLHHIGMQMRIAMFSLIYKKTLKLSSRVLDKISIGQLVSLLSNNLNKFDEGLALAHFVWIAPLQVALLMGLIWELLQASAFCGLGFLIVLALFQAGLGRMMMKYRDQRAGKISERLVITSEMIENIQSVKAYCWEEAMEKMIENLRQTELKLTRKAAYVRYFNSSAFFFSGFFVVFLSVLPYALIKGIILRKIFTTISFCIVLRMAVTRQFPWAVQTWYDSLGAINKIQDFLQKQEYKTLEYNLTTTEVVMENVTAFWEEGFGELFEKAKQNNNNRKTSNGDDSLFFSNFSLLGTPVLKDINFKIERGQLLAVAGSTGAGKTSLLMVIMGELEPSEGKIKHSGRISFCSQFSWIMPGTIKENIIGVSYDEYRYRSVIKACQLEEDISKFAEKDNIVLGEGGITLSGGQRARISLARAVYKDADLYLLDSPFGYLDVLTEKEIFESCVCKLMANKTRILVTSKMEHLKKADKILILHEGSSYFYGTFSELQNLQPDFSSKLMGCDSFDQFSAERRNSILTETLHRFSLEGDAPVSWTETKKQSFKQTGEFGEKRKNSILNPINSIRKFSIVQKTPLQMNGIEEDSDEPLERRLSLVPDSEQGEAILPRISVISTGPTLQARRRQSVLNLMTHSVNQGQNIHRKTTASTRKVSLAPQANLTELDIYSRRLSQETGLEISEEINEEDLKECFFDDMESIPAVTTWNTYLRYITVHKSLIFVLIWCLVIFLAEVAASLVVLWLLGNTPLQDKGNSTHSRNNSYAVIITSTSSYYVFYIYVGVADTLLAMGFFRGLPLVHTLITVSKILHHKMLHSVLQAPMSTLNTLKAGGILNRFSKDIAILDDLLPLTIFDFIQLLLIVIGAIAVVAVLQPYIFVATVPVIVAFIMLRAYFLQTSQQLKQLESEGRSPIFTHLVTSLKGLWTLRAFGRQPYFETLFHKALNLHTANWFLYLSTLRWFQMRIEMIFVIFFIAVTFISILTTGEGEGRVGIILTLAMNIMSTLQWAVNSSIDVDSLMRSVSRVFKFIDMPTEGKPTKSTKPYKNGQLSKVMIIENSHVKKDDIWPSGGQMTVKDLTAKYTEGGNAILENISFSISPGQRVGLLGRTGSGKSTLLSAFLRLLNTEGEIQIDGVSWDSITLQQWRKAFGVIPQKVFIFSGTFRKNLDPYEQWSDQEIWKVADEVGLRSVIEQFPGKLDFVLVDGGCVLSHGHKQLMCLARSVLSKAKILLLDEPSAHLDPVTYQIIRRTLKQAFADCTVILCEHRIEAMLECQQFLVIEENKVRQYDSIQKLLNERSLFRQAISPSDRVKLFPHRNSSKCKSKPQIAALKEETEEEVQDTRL
assay.procedure: Assay results of Table 3: ΔF508-CFTR modulation, membrane potential optical assay (assay format not stated)
condition.label: potency range; NIH3T3 mouse fibroblasts stably expressing […]F508-CFTR (optical assays)
Overview of recorded EC50 for various molecules

{"molecule": "CCN(CC)c1nc(C(N)=O)cc(-c2c(F)cccc2F)n1 [Compound 125]", "assayed.target": "[…]F508-CFTR (Homo sapiens, UniProt P13569, DEL508-508)", "EC50": "< 1000 nM"}
{"molecule": "NC(=O)c1cc(-c2ccccc2Oc2ccccc2)nc(N2CCCCC2)n1 [Compound 146]", "assayed.target": "[…]F508-CFTR (Homo sapiens, UniProt P13569, DEL508-508)", "EC50": "1000 to 5000 nM"}
{"molecule": "C#CCNc1nc(C(N)=O)cc(-c2cccc(OC)c2)n1 [Compound 145]", "assayed.target": "[…]F508-CFTR (Homo sapiens, UniProt P13569, DEL508-508)", "EC50": "> 5000 nM"}
{"molecule": "COc1ccc(-c2cc(C(N)=O)nc(N3CCCCC3)n2)c(OC)c1 [Compound 65]", "assayed.target": "[…]F508-CFTR (Homo sapiens, UniProt P13569, DEL508-508)", "EC50": "> 5000 nM"}
{"molecule": "CCN(CC)c1nc(C(N)=O)cc(-c2ccc(C(C)C)cc2)n1 [Compound 55]", "assayed.target": "[…]F508-CFTR (Homo sapiens, UniProt P13569, DEL508-508)", "EC50": "< 1000 nM"}

====

assayed.target: […]F508-CFTR (Homo sapiens, UniProt P13569, DEL508-508)
assay.procedure: Assay results of Table 3: ΔF508-CFTR modulation, membrane potential optical assay (assay format not stated)
condition.label: potency range; NIH3T3 mouse fibroblasts stably expressing […]F508-CFTR (optical assays)
pEC50: −log10 of the molar value.
Overview of recorded pEC50 for various molecules

{"molecule": "CCN(CC)c1nc(C(N)=O)cc(-c2cccc(C)c2C)n1", "pEC50": "> 6.00"}
{"molecule": "CCN(CC)c1nc(C(N)=O)cc(-c2cccc(C(=O)OC)c2)n1", "pEC50": "> 6.00"}
{"molecule": "CCN(CCO)c1nc(C(N)=O)cc(-c2ccccc2OC)n1", "pEC50": "< 5.30"}
{"molecule": "NC(=O)c1cc(-c2ccccc2)nc(NCc2ccco2)n1", "pEC50": "< 5.30"}
{"molecule": "NC(=O)c1cc(-c2cccc(C(F)(F)F)c2)nc(N2CCCCC2)n1", "pEC50": "< 5.30"}
{"molecule": "CCN(CC)c1nc(C(N)=O)cc(-c2ccc(Cl)cc2)n1", "pEC50": "> 6.00"}
{"molecule": "CCN(CC)c1nc(C(N)=O)cc(-c2cc(OC)ccc2OC)n1", "pEC50": "> 6.00"}
{"molecule": "CCCCCN(C)c1nc(C(N)=O)cc(-c2ccccc2)n1", "pEC50": "5.30 to 6.00"}
{"molecule": "CCN(CC)c1nc(C(N)=O)cc(-c2ccc(OC)nc2)n1", "pEC50": "5.30 to 6.00"}
{"molecule": "CCNc1nc(C(N)=O)cc(-c2ccccc2)n1", "pEC50": "< 5.30"}
{"molecule": "NC(=O)c1cc(-c2csc3ccccc23)nc(N2CCCCC2)n1", "pEC50": "< 5.30"}
{"molecule": "CCOc1cccc(-c2cc(C(N)=O)nc(N3CCCCC3)n2)c1", "pEC50": "5.30 to 6.00"}
{"molecule": "CN(Cc1ccco1)c1nc(C(N)=O)cc(-c2ccccc2)n1", "pEC50": "5.30 to 6.00"}
{"molecule": "NC(=O)c1cc(-c2ccc3c(c2)OCO3)nc(N2CCCCC2)n1", "pEC50": "< 5.30"}
{"molecule": "CCN(CC)c1nc(C(N)=O)cc(-c2ccc(C)cc2)n1", "pEC50": "5.30 to 6.00"}
{"molecule": "COc1ccc(-c2cc(C(N)=O)nc(N3CCCCCC3)n2)cc1", "pEC50": "5.30 to 6.00"}
{"molecule": "CC1CC(C)CN(c2nc(C(N)=O)cc(-c3ccccc3)n2)C1 (centres unmarked)", "pEC50": "5.30 to 6.00"}
{"molecule": "CCN(CC)c1nc(C(N)=O)cc(-c2cccc(F)c2)n1", "pEC50": "< 5.30"}
{"molecule": "CCN(C)c1nc(C(N)=O)cc(-c2ccccc2)n1", "pEC50": "5.30 to 6.00"}
{"molecule": "NC(=O)c1cc(-c2cccc(Cl)c2Cl)nc(N2CCCCC2)n1", "pEC50": "5.30 to 6.00"}
{"molecule": "CCN(CC)c1nc(C(N)=O)cc(-c2csc3ccccc23)n1", "pEC50": "> 6.00"}
{"molecule": "NC(=O)c1cc(-c2ccccc2)nc(N2CCC(C(=O)c3ccc(Cl)cc3)CC2)n1", "pEC50": "< 5.30"}
{"molecule": "CCN(CC)c1nc(C(N)=O)cc(-c2c(OC)cccc2OC)n1", "pEC50": "< 5.30"}
{"molecule": "CCN(CC)c1nc(C(N)=O)cc(-c2cccc(OC)c2)n1", "pEC50": "5.30 to 6.00"}
{"molecule": "NC(=O)c1cc(-c2ccccc2)nc(-n2ccnc2)n1", "pEC50": "< 5.30"}
{"molecule": "NC(=O)c1cc(-c2cccc(OC(F)(F)F)c2)nc(N2CCCCC2)n1", "pEC50": "5.30 to 6.00"}
{"molecule": "CCCCN(CC#N)c1nc(C(N)=O)cc(-c2ccccc2)n1", "pEC50": "< 5.30"}
{"molecule": "NC(=O)c1cc(-c2ccccc2)nc(N2CCC(n3c(=O)[nH]c4ccccc43)CC2)n1", "pEC50": "< 5.30"}
{"molecule": "C=CCNc1nc(C(N)=O)cc(-c2ccc(OC)cc2)n1", "pEC50": "< 5.30"}
{"molecule": "COc1ccc(OC)c(-c2cc(C(N)=O)nc(N3CCCCC3)n2)c1", "pEC50": "5.30 to 6.00"}
{"molecule": "N#Cc1ccc(-c2cc(C(N)=O)nc(N3CCCCC3)n2)cc1", "pEC50": "< 5.30"}
{"molecule": "NC(=O)c1cc(-c2ccccc2)nc(CC2CCCCC2)n1", "pEC50": "< 5.30"}
{"molecule": "CCN(CC)c1nc(C(N)=O)cc(-c2cccc(C(=O)OC(C)C)c2)n1", "pEC50": "> 6.00"}
{"molecule": "CCN(CCO)c1nc(C(=O)NC)cc(-c2ccccc2)n1", "pEC50": "< 5.30"}
{"molecule": "COc1cccc(-c2cc(C(N)=O)nc(N3CC=CCC3)n2)c1", "pEC50": "< 5.30"}
{"molecule": "CCN(CC)c1nc(C(N)=O)cc(-c2cccc(Cl)c2)n1", "pEC50": "> 6.00"}
{"molecule": "CCN(CC)c1nc(C(N)=O)cc(-c2ccccc2Oc2ccccc2)n1", "pEC50": "> 6.00"}
{"molecule": "N#Cc1cccc(-c2cc(C(N)=O)nc(N3CCCCC3)n2)c1", "pEC50": "< 5.30"}

Source of measurements: patent US8822451B2
